# assay_system: CHK1 kinase (Homo sapiens)
# Sequence (O14757 1-476): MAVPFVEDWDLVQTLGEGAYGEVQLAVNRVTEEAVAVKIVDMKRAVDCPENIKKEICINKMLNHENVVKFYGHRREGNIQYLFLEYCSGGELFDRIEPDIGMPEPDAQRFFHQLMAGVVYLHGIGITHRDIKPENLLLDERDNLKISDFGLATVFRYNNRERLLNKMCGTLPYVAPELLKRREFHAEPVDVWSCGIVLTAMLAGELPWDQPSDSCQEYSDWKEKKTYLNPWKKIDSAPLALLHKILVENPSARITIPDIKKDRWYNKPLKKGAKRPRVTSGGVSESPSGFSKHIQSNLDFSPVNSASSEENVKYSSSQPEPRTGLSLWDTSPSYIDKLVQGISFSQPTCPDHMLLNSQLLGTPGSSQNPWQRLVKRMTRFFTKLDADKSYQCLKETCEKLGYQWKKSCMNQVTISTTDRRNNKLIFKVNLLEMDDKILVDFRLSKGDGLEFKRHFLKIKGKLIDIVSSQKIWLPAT
pIC50: −log10 of the molar value.
Exercise: for every item that follows, state its recorded pIC50.

Noted for `NS(=O)(=O)c1ccc(CNc2c(Nc3ccc4[nH]cnc4c3)c(=O)c2=O)cc1` : its pIC50 reads < 6.00

Noted for CCOC(=O)CC(Nc1c(Nc2ccc3[nH]cnc3c2)c(=O)c1=O)c1cccc(O)c1 (stereo not shown) : its pIC50 reads < 6.00

Noted for `O=c1c(NCc2cccc(O)c2)c(Nc2ccc3nccn3c2)c1=O` : its pIC50 reads > 6.00

Noted for `COc1cccc(CNc2c(Nc3ccc4[nH]cnc4c3)c(=O)c2=O)c1` : its pIC50 reads > 6.00
